FYI, the data here is from patent US20240132624A1.

System Under Test: T1, cyno FcRn/b2M (cyno, UniProt Q8SPV9 24-297; Q8SPW0 21-119, biotinylated)
T1 construct: bought recombinant biotinylated protein (Immunitrack ITF05 or ACRO FCM-C82W5); also called cFcRn; cFcRn/cb2M
T1 sequence (Q8SPV9 24-297 limits assumed, chain 1 of 2): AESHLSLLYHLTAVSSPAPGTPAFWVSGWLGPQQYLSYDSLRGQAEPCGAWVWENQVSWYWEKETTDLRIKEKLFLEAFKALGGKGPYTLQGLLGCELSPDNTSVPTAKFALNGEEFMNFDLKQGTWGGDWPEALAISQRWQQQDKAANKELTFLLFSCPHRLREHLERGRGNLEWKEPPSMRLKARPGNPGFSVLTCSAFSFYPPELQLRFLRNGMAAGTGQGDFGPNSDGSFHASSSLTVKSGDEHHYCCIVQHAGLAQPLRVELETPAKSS
T1 sequence (Q8SPW0 21-119 limits assumed, chain 2 of 2): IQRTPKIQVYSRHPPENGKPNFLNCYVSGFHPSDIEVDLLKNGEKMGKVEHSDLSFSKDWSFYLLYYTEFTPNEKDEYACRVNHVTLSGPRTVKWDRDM
Assay Text: SPR pH 6.0;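 further: surface plasmon resonance kinetics at 25 °C, diluted periplasmic extracts injected over immobilized ligand surfaces, 120 s association then 600–3600 s dissociation, running buffer containing 150 mM NaCl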
Metric: koff (s⁻¹)

The following binders have reported results that may help.
# Binder, Metric, Readout Value
data = [
    ("T0263018B11 S100K (VHH, name in Kabat numbering, FLAG3-His6 tagged) VHH: EVQLVESGGGVVQPGGSLRLSCAASGFTFSSYAMYWVRQAPGKGLEWVSAISSGGGSTDYADSVKGRFTISRDNSKNTLYLQMNSLRPEDTALYYCAADTLYTKLTWYSYWGQGTLVTVSS", "koff", 0.0012),
    ("T0263018B11 T96A (VHH, name in Kabat numbering, FLAG3-His6 tagged) VHH: EVQLVESGGGVVQPGGSLRLSCAASGFTFSSYAMYWVRQAPGKGLEWVSAISSGGGSTDYADSVKGRFTISRDNSKNTLYLQMNSLRPEDTALYYCAADALYTSLTWYSYWGQGTLVTVSS", "koff", 0.0029),
    ("T0263018B11 S101W (VHH, name in Kabat numbering, FLAG3-His6 tagged) VHH: EVQLVESGGGVVQPGGSLRLSCAASGFTFSSYAMYWVRQAPGKGLEWVSAISSGGGSTDYADSVKGRFTISRDNSKNTLYLQMNSLRPEDTALYYCAADTLYTSLTWYWYWGQGTLVTVSS", "koff", "9.7e-05"),
    ("T0263018B11 S52G (VHH, name in Kabat numbering, FLAG3-His6 tagged) VHH: EVQLVESGGGVVQPGGSLRLSCAASGFTFSSYAMYWVRQAPGKGLEWVSAIGSGGGSTDYADSVKGRFTISRDNSKNTLYLQMNSLRPEDTALYYCAADTLYTSLTWYSYWGQGTLVTVSS", "koff", 0.0004),
    ("T0263018B11 S101E (VHH, name in Kabat numbering, FLAG3-His6 tagged) VHH: EVQLVESGGGVVQPGGSLRLSCAASGFTFSSYAMYWVRQAPGKGLEWVSAISSGGGSTDYADSVKGRFTISRDNSKNTLYLQMNSLRPEDTALYYCAADTLYTSLTWYEYWGQGTLVTVSS", "koff", "9.4e-05"),
]

a. T0263018B11 W100cV (VHH, name in Kabat numbering, FLAG3-His6 tagged) VHH: EVQLVESGGGVVQPGGSLRLSCAASGFTFSSYAMYWVRQAPGKGLEWVSAISSGGGSTDYADSVKGRFTISRDNSKNTLYLQMNSLRPEDTALYYCAADTLYTSLTVYSYWGQGTLVTVSS
b. T0263018B11 G26Y (VHH, name in Kabat numbering, FLAG3-His6 tagged) VHH: EVQLVESGGGVVQPGGSLRLSCAASYFTFSSYAMYWVRQAPGKGLEWVSAISSGGGSTDYADSVKGRFTISRDNSKNTLYLQMNSLRPEDTALYYCAADTLYTSLTWYSYWGQGTLVTVSS
c. T0263018B11 W100cA (VHH, name in Kabat numbering, FLAG3-His6 tagged) VHH: EVQLVESGGGVVQPGGSLRLSCAASGFTFSSYAMYWVRQAPGKGLEWVSAISSGGGSTDYADSVKGRFTISRDNSKNTLYLQMNSLRPEDTALYYCAADTLYTSLTAYSYWGQGTLVTVSS
Ask | Please give the order of these binders when sorted by koff, largest value leading. // ordering of labels required in reply
Reply | c, a, b
